Where do these numbers come from? They come from ChEMBL document CHEMBL1135692.

Target: Melanocortin receptor 5 (Mus musculus)
Sequence (P41149 whole entry): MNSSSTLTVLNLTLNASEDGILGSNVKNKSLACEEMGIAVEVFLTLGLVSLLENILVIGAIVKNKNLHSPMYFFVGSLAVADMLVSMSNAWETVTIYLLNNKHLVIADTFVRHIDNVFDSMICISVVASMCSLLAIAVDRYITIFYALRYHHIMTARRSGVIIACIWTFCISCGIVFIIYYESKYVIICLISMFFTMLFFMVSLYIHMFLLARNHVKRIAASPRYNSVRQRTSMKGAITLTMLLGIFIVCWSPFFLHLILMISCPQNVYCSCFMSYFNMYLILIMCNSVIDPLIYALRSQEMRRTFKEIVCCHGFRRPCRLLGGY
Assay: Activity in mouse melanocortin-5 receptor stably expressed in HEK293 cells
Assay type: cell-based
property: EC50 (nM)

Solved cases below.
* CC(=O)N[C@@H](Cc1cnc[nH]1)C(=O)NC(Cc1ccccc1)C(=O)N[C@@H](CCCNC(=N)N)C(=O)N[C@H](Cc1cccc2ccccc12)C(N)=O (stereo in doubt) | 33.1
* CC(=O)N[C@@H](Cc1cnc[nH]1)C(=O)N[C@H](Cc1ccccc1)C(=O)N[C@@H](CCCN=C(N)N)C(=O)N1Cc2ccccc2C[C@H]1C(N)=O | 700

a = CC(=O)N[C@@H](Cc1cnc[nH]1)C(=O)NC(Cc1ccccc1)C(=O)N[C@@H](CCCNC(=N)N)C(=O)N[C@H](Cc1ccncc1)C(N)=O (stereo in doubt)
b = CC(=O)N[C@@H](Cc1c[nH]cn1)C(=O)N[C@H](Cc1ccccc1)C(=O)N[C@@H](CCCN=C(N)N)C(=O)N[C@@]1(C(N)=O)CCc2ccccc2C1 (stereo in doubt; 20)
input: Kindly identify the item with the lower EC50 figure among these two: a and b State your choice using its label.
output: b

----------
Molecular target: Melanocyte-stimulating hormone receptor (Mus musculus)
Sequence (Q01727 whole entry): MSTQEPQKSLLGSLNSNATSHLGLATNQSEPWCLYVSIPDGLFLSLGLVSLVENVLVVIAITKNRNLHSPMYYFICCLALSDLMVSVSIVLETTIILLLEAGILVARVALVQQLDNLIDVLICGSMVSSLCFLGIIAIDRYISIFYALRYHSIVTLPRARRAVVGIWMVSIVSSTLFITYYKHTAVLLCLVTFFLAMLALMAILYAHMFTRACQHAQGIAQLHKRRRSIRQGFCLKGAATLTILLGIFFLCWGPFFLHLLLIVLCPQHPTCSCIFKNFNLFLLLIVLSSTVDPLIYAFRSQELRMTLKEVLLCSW
Assay: Activity in mouse melanocortin-1 receptor stably expressed in HEK293 cells
property: EC50 (µM)

Solved cases below.
* CC(=O)N[C@@H](Cc1cnc[nH]1)C(=O)N[C@H](Cc1ccccc1)C(=O)N[C@@H](CCCN=C(N)N)C(=O)N1Cc2ccccc2C[C@@H]1C(N)=O | 1.5
* CC(=O)N[C@@H](Cc1cnc[nH]1)C(=O)N[C@H](Cc1ccccc1)C(=O)N[C@@H](CCCN=C(N)N)C(=O)N1Cc2ccccc2C[C@H]1C(N)=O | 0.043
* CC(=O)N[C@@H](Cc1cnc[nH]1)C(=O)NC(Cc1ccccc1)C(=O)N[C@@H](CCCNC(=N)N)C(=O)N[C@@H](Cc1cccc2ccccc12)C(N)=O (stereo in doubt) | 0.75

a = CC(=O)N[C@@H](Cc1c[nH]cn1)C(=O)N[C@H](Cc1ccccc1)C(=O)N[C@@H](CCCN=C(N)N)C(=O)N[C@@H](C)C(N)=O
b = CC(=O)N[C@@H](Cc1c[nH]cn1)C(=O)NC(Cc1ccccc1)C(=O)N[C@@H](CCCN=C(N)N)C(=O)N[C@H](Cc1ccc(-c2ccccc2)cc1)C(N)=O (stereo in doubt)
c = CC(=O)N[C@@H](Cc1cnc[nH]1)C(=O)NC(Cc1ccccc1)C(=O)N[C@@H](CCCNC(=N)N)C(=O)N[C@@H](Cc1ccc(-c2ccccc2)cc1)C(N)=O (stereo in doubt)
input: Sort low-to-high on EC50, please. Present the labels in the sequence the task asks for.
output: b, c, a
(b: 0.0519 µM, c: 0.31 µM, a: 4.4 µM)

A = CC(=O)N[C@@H](Cc1c[nH]cn1)C(=O)N[C@H](Cc1ccccc1)C(=O)N[C@@H](CCCN=C(N)N)C(=O)N[C@@]1(C(N)=O)CCc2ccccc2C1 (stereo in doubt; 21)
B = CC(=O)N[C@@H](Cc1c[nH]cn1)C(=O)N[C@H](Cc1ccccc1)C(=O)N[C@@H](CCCN=C(N)N)C(=O)N[C@H](C(N)=O)C(c1ccccc1)c1ccccc1
C = CC(=O)N[C@@H](Cc1c[nH]cn1)C(=O)NC(Cc1ccccc1)C(=O)N[C@@H](CCCN=C(N)N)C(=O)N[C@H](Cc1ccc2ccccc2c1)C(N)=O (stereo in doubt)
input: Sort low-to-high on EC50, please. Present the labels in the sequence the task asks for.
output: C, A, B

I = CC(=O)N[C@@H](Cc1c[nH]cn1)C(=O)N[C@H](Cc1ccccc1)C(=O)N[C@@H](CCCN=C(N)N)C(=O)N[C@@H](Cc1ccccc1)C(N)=O
II = CC(=O)N[C@@H](Cc1cnc[nH]1)C(=O)NC(Cc1ccccc1)C(=O)N[C@@H](CCCNC(=N)N)C(=O)N[C@H](Cc1cccs1)C(N)=O (stereo in doubt)
input: Kindly identify the item with the lower EC50 figure among these two: I and II State your choice using its label.
output: I
(I: 0.53 µM, II: 2.78 µM)

1 = CC(=O)N[C@@H](Cc1cnc[nH]1)C(=O)NC(Cc1ccccc1)C(=O)N[C@@H](CCCNC(=N)N)C(=O)NC(C(N)=O)C(c1ccccc1)c1ccccc1 (stereo in doubt)
2 = CC(=O)N[C@@H](Cc1c[nH]cn1)C(=O)NC(Cc1ccccc1)C(=O)N[C@@H](CCCN=C(N)N)C(=O)NC(Cc1ccccc1)C(N)=O (stereo in doubt)
input: Kindly identify the item with the lower EC50 figure among these two: 1 and 2 State your choice using its label.
output: 1
(1: 0.68 µM, 2: 2.5 µM)

----------
Molecular target: Melanocortin receptor 3 (Mus musculus, UniProt P33033)
Sequence (P33033 whole entry): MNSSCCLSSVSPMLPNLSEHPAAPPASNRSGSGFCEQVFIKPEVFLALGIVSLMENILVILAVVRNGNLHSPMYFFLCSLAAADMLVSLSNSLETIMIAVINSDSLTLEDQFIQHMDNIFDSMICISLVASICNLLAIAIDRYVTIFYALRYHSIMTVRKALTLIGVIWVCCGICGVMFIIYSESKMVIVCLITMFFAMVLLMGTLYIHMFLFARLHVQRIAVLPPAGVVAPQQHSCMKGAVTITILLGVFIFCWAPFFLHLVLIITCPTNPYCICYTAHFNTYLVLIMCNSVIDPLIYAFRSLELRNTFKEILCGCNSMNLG
Test: Activity in mouse melanocortin-3 receptor (mMC3R) stably expressed in HEK293 cells
pEC50: −log10 of the molar value.
property: pEC50

Solved cases below.
* CC(=O)N[C@@H](Cc1cnc[nH]1)C(=O)N[C@H](Cc1ccccc1)C(=O)N[C@@H](CCCN=C(N)N)C(=O)N1Cc2ccccc2C[C@H]1C(N)=O | 4.63
* CC(=O)N[C@@H](Cc1c[nH]cn1)C(=O)N[C@H](Cc1ccccc1)C(=O)N[C@@H](CCCN=C(N)N)C(=O)N[C@@]1(C(N)=O)CCc2ccccc2C1 (stereo in doubt; 20) | 5.00
* CC(=O)N[C@@H](Cc1c[nH]cn1)C(=O)NC(Cc1ccccc1)C(=O)N[C@@H](CCCN=C(N)N)C(=O)NC(Cc1ccccc1)C(N)=O (stereo in doubt) | 4.82

a = CC(=O)N[C@@H](Cc1cnc[nH]1)C(=O)NC(Cc1ccccc1)C(=O)N[C@@H](CCCNC(=N)N)C(=O)N[C@@H](Cc1cccc2ccccc12)C(N)=O (stereo in doubt)
b = CC(=O)N[C@@H](Cc1c[nH]cn1)C(=O)NC(Cc1ccccc1)C(=O)N[C@@H](CCCN=C(N)N)C(=O)NC(Cc1ccc2ccccc2c1)C(N)=O (stereo in doubt)
c = CC(=O)N[C@@H](Cc1c[nH]cn1)C(=O)NC(Cc1ccccc1)C(=O)N[C@@H](CCCN=C(N)N)C(=O)N[C@H](Cc1ccc(-c2ccccc2)cc1)C(N)=O (stereo in doubt)
d = CC(=O)N[C@@H](Cc1c[nH]cn1)C(=O)N[C@@H](Cc1ccccc1)C(=O)N[C@@H](CCCN=C(N)N)C(=O)N[C@@H](C(N)=O)C(c1ccccc1)c1ccccc1
e = CC(=O)N[C@@H](Cc1cnc[nH]1)C(=O)NC(Cc1ccccc1)C(=O)N[C@@H](CCCNC(=N)N)C(=O)N[C@H](Cc1cccc2ccccc12)C(N)=O (stereo in doubt)
input: Sort low-to-high on pEC50, please. Present the labels in the sequence the task asks for.
output: d, a, c, e, b
(d: 4.27, a: 4.66, c: 4.87, e: 5.46, b: 5.79)

----------
Biological target: Melanocortin receptor 4 (Mus musculus)
Sequence (P56450 whole entry): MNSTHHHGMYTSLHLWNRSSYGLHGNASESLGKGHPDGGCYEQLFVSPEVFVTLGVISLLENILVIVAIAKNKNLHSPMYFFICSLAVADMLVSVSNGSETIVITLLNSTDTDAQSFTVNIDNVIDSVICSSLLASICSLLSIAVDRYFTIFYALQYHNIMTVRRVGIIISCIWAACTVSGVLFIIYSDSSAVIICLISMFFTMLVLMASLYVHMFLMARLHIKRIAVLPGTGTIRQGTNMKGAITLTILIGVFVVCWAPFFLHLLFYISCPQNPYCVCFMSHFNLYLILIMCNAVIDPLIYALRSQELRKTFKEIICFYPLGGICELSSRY
Experiment: Activity in mouse melanocortin-4 receptor stably expressed in HEK293 cells
Type: cell-based
pEC50: −log10 of the molar value.
property: pEC50

Solved cases below.
• CC(=O)N[C@@H](Cc1cnc[nH]1)C(=O)NC(Cc1ccccc1)C(=O)N[C@@H](CCCNC(=N)N)C(=O)N[C@H](Cc1cccs1)C(N)=O (stereo in doubt) = 5.09
• CC(=O)N[C@@H](Cc1cnc[nH]1)C(=O)N[C@H](Cc1ccccc1)C(=O)N[C@@H](CCCN=C(N)N)C(=O)N1Cc2ccccc2C[C@H]1C(N)=O = 5.07

P = CC(=O)N[C@@H](Cc1c[nH]cn1)C(=O)NC(Cc1ccccc1)C(=O)N[C@@H](CCCN=C(N)N)C(=O)N[C@H](Cc1ccc2ccccc2c1)C(N)=O (stereo in doubt)
Q = CC(=O)N[C@@H](Cc1c[nH]cn1)C(=O)N[C@H](Cc1ccccc1)C(=O)N[C@@H](CCCN=C(N)N)C(=O)N[C@@]1(C(N)=O)CCc2ccccc2C1 (stereo in doubt; 20)
input: Kindly identify the item with the lower pEC50 figure among these two: P and Q State your choice using its label.
output: Q
(Q: 5.46, P: 7.80)

1 = CC(=O)N[C@@H](Cc1cnc[nH]1)C(=O)NC(Cc1ccccc1)C(=O)N[C@@H](CCCNC(=N)N)C(=O)N[C@@H](Cc1cccc2ccccc12)C(N)=O (stereo in doubt)
2 = CC(=O)N[C@@H](Cc1cnc[nH]1)C(=O)NC(Cc1ccccc1)C(=O)N[C@@H](CCCNC(=N)N)C(=O)N[C@@H](Cc1ccc(-c2ccccc2)cc1)C(N)=O (stereo in doubt)
3 = CC(=O)N[C@@H](Cc1cnc[nH]1)C(=O)NC(Cc1ccccc1)C(=O)N[C@@H](CCCNC(=N)N)C(=O)N[C@H](Cc1cnc[nH]1)C(N)=O (stereo in doubt)
4 = CC(=O)N[C@@H](Cc1c[nH]cn1)C(=O)NC(Cc1ccccc1)C(=O)N[C@@H](CCCN=C(N)N)C(=O)NC(Cc1ccc2ccccc2c1)C(N)=O (stereo in doubt)
input: Sort low-to-high on pEC50, please. Present the labels in the sequence the task asks for.
output: 3, 1, 2, 4

I = CC(=O)N[C@@H](Cc1c[nH]cn1)C(=O)NC(Cc1ccccc1)C(=O)N[C@@H](CCCN=C(N)N)C(=O)N[C@H](Cc1ccc(-c2ccccc2)cc1)C(N)=O (stereo in doubt)
II = CC(=O)N[C@@H](Cc1c[nH]cn1)C(=O)N[C@H](Cc1ccccc1)C(=O)N[C@@H](CCCN=C(N)N)C(=O)N[C@@]1(C(N)=O)CCc2ccccc2C1 (stereo in doubt; 21)
III = CC(=O)N[C@@H](Cc1cnc[nH]1)C(=O)N[C@H](Cc1ccccc1)C(=O)N[C@@H](CCCN=C(N)N)C(=O)N1Cc2ccccc2C[C@@H]1C(N)=O
IV = CC(=O)N[C@@H](Cc1cnc[nH]1)C(=O)NC(Cc1ccccc1)C(=O)N[C@@H](CCCNC(=N)N)C(=O)N[C@H](Cc1csc2ccccc12)C(N)=O (stereo in doubt)
V = CC(=O)N[C@@H](Cc1c[nH]cn1)C(=O)NC(Cc1ccccc1)C(=O)N[C@@H](CCCN=C(N)N)C(=O)NC(Cc1ccccc1)C(N)=O (stereo in doubt)
input: Sort low-to-high on pEC50, please. Present the labels in the sequence the task asks for.
output: III, II, I, V, IV
(III: 4.40, II: 5.06, I: 5.57, V: 6.00, IV: 6.84)
